// provenance: paper PMC12029992

system: female CD-1 mouse; assay: Pharmacokinetic studies in mice (IV clearance); format: in vivo; conditions: blood intrinsic clearance
Measurement type: in vivo obs. CLint,b (mL/min/kg)
// note: answer is a bare numeric in mL/min/kg

Value (in vivo obs. CLint,b, female CD-1 mouse) for record CNC(=O)c1cc(Oc2ccc3nc(N[C@@H]4CCCC[C@H]4O)sc3c2)ccn1 = 6.81

Value (in vivo obs. CLint,b, female CD-1 mouse) for record O=C(O)c1cc(-c2ccc(F)cc2F)ccc1O = 2.91

Value (in vivo obs. CLint,b, female CD-1 mouse) for record N#Cc1c[nH]c2c(C(=O)N3CCN(CCc4ccc(F)cc4)CC3)cccc12 = 169.91

Value (in vivo obs. CLint,b, female CD-1 mouse) for record COc1cccc(OCCCN)c1-c1cc(Nc2cnc(C#N)cn2)n[nH]1 = 317.36
